- assay_text: Inhibition of potato 5-LOX by EIA
- Design: species or system Solanum tuberosum
quantity: IC50 (µM)

O=C(O)/C=C/c1ccc(O)c(O)c1
4
Cc1noc2c(Cc3ccc([N+](=O)[O-])cc3)nn(Cc3n[nH]c(=S)n3-c3ccccc3)c(=O)c12
16.5
CCNc1nnc(Cn2nc(Cc3ccccc3)c3onc(C)c3c2=O)s1
72.8

[A] CC(c1cc2ccccc2s1)N(O)C(N)=O (stereo not given)
[B] COc1ccc(Cc2nn(Cc3nnc(Nc4ccccc4)s3)c(=O)c3c(C)noc23)cc1
For the two items A and B , which reports the higher IC50 value? Reply briefly: the label of your chosen item. B

* * *

- assay_text: Inhibition of potato 5-LOX by EIA
- Parameters: species or system Solanum tuberosum
pIC50: −log10 of the molar value.
quantity: pIC50

[A] CCn1c(Cn2nc(Cc3ccc(OC)cc3)c3onc(C)c3c2=O)n[nH]c1=S
[B] CCn1c(Cn2nc(Cc3ccc([N+](=O)[O-])cc3)c3onc(C)c3c2=O)n[nH]c1=S
Choose between A and B : whose measured pIC50 value is numerically larger? Please identify the chosen entry by its label. A
(A: 5.07, B: 4.83)

* * *

# IC50 values compiled below
- measured_on: Prostaglandin G/H synthase 2 (Homo sapiens, UniProt P35354)
- Sequence (P35354 whole entry): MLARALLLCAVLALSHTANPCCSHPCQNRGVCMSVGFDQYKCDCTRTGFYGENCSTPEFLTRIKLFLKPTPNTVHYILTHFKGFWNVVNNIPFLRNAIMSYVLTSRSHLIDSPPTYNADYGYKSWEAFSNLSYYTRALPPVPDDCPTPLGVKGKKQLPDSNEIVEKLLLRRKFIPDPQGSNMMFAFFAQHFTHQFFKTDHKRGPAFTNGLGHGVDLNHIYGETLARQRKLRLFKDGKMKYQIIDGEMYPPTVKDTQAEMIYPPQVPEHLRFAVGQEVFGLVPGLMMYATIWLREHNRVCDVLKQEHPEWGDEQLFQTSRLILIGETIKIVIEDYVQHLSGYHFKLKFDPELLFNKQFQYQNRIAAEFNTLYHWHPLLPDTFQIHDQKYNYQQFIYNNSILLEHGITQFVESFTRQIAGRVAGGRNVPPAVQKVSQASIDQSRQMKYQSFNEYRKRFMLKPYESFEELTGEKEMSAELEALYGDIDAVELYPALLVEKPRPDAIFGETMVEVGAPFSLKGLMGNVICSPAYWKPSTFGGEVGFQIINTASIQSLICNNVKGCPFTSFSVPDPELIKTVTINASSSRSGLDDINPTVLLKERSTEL
- assay_text: Inhibition of human recombinant COX2 by fluorescence assay

Cc1noc2c(Cc3ccccc3)nn(Cc3n[nH]c(=S)n3-c3ccccc3)c(=O)c12
> 100 µM
CCn1c(Cn2nc(Cc3ccc([N+](=O)[O-])cc3)c3onc(C)c3c2=O)n[nH]c1=S
9.2 µM

# lookup: IC50 of "CCn1c(Cn2nc(Cc3ccc(OC)cc3)c3onc(C)c3c2=O)n[nH]c1=S" 2.2 µM

Then "Cc1noc2c(Cc3ccc([N+](=O)[O-])cc3)nn(Cc3n[nH]c(=S)n3-c3ccccc3)c(=O)c12" ? > 100 µM

What would you report for "COc1ccc(Cc2nn(Cc3nnc(Nc4ccccc4)s3)c(=O)c3c(C)noc23)cc1" ? > 100 µM

"CCNc1nnc(Cn2nc(Cc3ccccc3)c3onc(C)c3c2=O)s1" , same question. > 100 µM

* * *

The compounds listed here are annotated with their UI.
- Tested on: Rattus norvegicus
- assay_text: Ulcerogenic activity in rat assessed as ulcer index at 0.14 mmol/kg, po after 6 hrs
- Assay type: toxicity, organism-based
- condition_notes: in vivo
Give just the numeric value; mm need not be written.

CNc1nnc(Cn2nc(Cc3ccc([N+](=O)[O-])cc3)c3onc(C)c3c2=O)s1
0.75

Shifting focus to the compound that follows.
Any idea what UI was measured for "COc1ccc(Cc2nn(Cc3n[nH]c(=S)n3-c3ccccc3)c(=O)c3c(C)noc23)cc1" ? 0

* * *

Each record here notes measured UI.
- Tested on: Rattus norvegicus
- assay_text: Ulcerogenic activity in rat assessed as ulcer index at 0.14 mmol/kg, po after 6 hrs
- Type: toxicity, organism-based
- condition_notes: in vivo
Express the result in mm but write the number alone.

Answered cases to consult:
COc1ccc(Cc2nn(Cc3n[nH]c(=S)n3C)c(=O)c3c(C)noc23)cc1
0.25
Cc1noc2c(Cc3ccc([N+](=O)[O-])cc3)nn(Cc3n[nH]c(=S)n3C)c(=O)c12
0.25
Cc1noc2c(Cc3ccccc3)nn(Cc3nnc(Nc4ccccc4)s3)c(=O)c12
0.5

Now let's try a different one.
Can you share its UI? I mean this compound: "CCn1c(Cn2nc(Cc3ccc([N+](=O)[O-])cc3)c3onc(C)c3c2=O)n[nH]c1=S" 0

Hello, the source for this data is ChEMBL document CHEMBL2016541, in case you need it.
